# System: T1, SWSAP1 K18A (Walker A);hSWS1 (Homo sapiens;Homo sapiens, UniProt Q6NVH7;Q19AV6 22-250;1-140, K39A|)
# T1 sequence 1: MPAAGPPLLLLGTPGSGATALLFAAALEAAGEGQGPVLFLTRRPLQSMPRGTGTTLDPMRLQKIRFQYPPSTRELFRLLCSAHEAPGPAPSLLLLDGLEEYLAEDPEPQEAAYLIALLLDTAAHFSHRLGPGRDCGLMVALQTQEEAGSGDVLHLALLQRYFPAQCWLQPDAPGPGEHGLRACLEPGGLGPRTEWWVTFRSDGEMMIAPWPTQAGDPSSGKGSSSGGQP
# T1 sequence 2: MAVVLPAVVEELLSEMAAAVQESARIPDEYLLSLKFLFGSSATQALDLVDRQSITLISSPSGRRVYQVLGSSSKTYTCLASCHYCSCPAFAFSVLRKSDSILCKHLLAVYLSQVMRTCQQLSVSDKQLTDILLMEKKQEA
# Test Description: fluorescence polarization; no nucleotide; FPA: 5 nM 6-FAM DNA, 37 C, 2 mM nucleotide where stated (buffer not given in material); EMSA: 0.05 uM 6-FAM DNA, 5%/15% native PAGE; RAD51 filaments: 2 mM ATP
# Assay Setup: protein: recombinant;recombinant; tags: N-terminal 6xHis-TEV, cleaved;none; copies: 1;1; label: 3' 6-FAM on strand 1; fork 1:2, 19 bp duplex, 20 nt arms
Measured Metric: pKd
Hey, just a heads up that pKd is the negative log base 10 of the concentration in molar.

q: # lookup: pKd of Fork (dsDNA) DNA 1: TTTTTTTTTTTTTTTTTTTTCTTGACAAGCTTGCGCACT DNA 2: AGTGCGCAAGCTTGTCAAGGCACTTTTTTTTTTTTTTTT
a: 5.34
